# System: Plasmodium falciparum
# method: ST_JUDE: Plasmodium falciparum 3D7 EC50 (uM) as measured by SYBR green dye
# Assay type: functional, organism-based
measure-name: pEC50
pEC50 is a log-scale quantity: -log10 of the concentration expressed in molar.

Look over these answered cases.
compound | pEC50
Cc1ccc(S(=O)(=O)Oc2ccc(/C=N/N=C(N)N)cc2)cc1 | 5.93
CCSc1ccc2ccccc2[n+]1CC | 6.38
CCCCCCC(O)(c1ccc(F)cc1)C(CN1CCOCC1)c1ccccc1 (configuration not stated) | 5.50
COc1ccc(/C=C2\Oc3c(ccc(O)c3CN3CCCCC3)C2=O)cc1 | 5.79
C/C=C/c1n(C)c2ccccc2[n+]1C | 5.82
CC(C)(C)c1ccc(S(=O)(=O)NC2=C/C(=N\c3ccc(O)cc3)C(=O)c3ccccc32)cc1 | 5.97
C=C(C)CCC(C)N1CCC(n2nccc2NC(=O)Nc2ccccc2Cl)CC1 (configuration not stated) | 5.43
CCCO/C(O)=C1\C(C)=NC2=C(C(=O)CC(c3ccccc3OC)C2)C1c1ccc([N+](=O)[O-])cc1 (configuration not stated) | 6.12
CCO/C(O)=C1\C(C)=NC2=C(C(=O)CC(c3ccccc3)C2)C1c1ccc(Cl)cc1 (configuration not stated) | 5.41
CCn1nc(-c2ccc(C(F)(F)F)cc2)nc2c(=O)n(C)c(=O)nc1-2 | 6.11

Exam item: Report pEC50, nothing else, for this compound: Nc1nc(Nc2ccc(Cl)c(Cl)c2)nc2ccccc12
Marked response: 5.65

Exam item: Specify measured pEC50 for Oc1c(CN2CCN(c3ccccc3F)CC2)cc(Br)c2cccnc12 .
Marked response: 5.42

Exam item: Check the records and state pEC50 for O=C1C(Nc2ccc(I)cc2)=C(N2CCOCC2)C(=O)c2ccccc21
Marked response: 6.59

Exam item: Tell me pEC50 reported for Cc1ccc(Cl)cc1NC(=O)c1c(-c2c(Cl)cccc2Cl)noc1C
Marked response: 6.32

Exam item: Return value of pEC50 for input CCOc1ccccc1/C=C/C(=O)Nc1ccc2nc(N3CCN(C)CC3)cc(C)c2c1 , no commentary.
Marked response: 6.36

The reported numbers originate from ChEMBL document CHEMBL1154198.
